# credit: PubChem BioAssay (NCI)

tested on: TK-10 renal; experiment: NCI tumour cell line growth inhibition, 48 h; in the data active = GI50 below about 0.43 µM; inactive = the rest
Response enum: True for active, False for inactive

Look over these answered cases.
1. CO[C@@H]1CCN(c2nccc(Nc3cc4c(C(C)C)ccc(N5CC(CS(C)(=O)=O)[C@H]5C)c4cn3)n2)C[C@@H]1F (some centres undefined): False
2. N#CC1=C(N)NC(=S)NC1c1ccc(-c2ccc(-c3nc4ccccc4o3)cc2)s1 (centres undefined): False

Problem: Given COc1cccc(/C=C/c2nc3c(cnn3-c3ccccc3)c(=O)[nH]2)c1 , state the outcome it received in this test.
Solution: False

Problem: Given C=C1c2ccccc2C(=O)c2c1c1c(C(=O)OC)c(OC(=O)OCc3ccc([N+](=O)[O-])cc3)ccc1n2Cc1ccccc1 , state the outcome it received in this test.
Solution: False

###

test system: SK-MEL-5 melanoma; assay: NCI tumour cell line growth inhibition, 48 h
measure: TGI (µM)
One number for each entry, in µM.

As a guide, the following entries are already answered.
1. CS(=O)(=O)Nc1cc(-c2ccc3ncnc(Nc4ccc(F)c(Cl)c4)c3c2)cnc1Cl: 1.69
2. CN(C)C(=O)OCc1nc2c(N3CCOCC3)nc(-c3ccccc3)nc2n1C: 2.73
3. CC(C)(C)OC(=O)N1CC(CCl)c2ccc(O)cc21 (centres undefined): 2.77

We next turn to a different compound, shown below.
Problem: I would be grateful if you could share the reported TGI for O=C1/C(=C/c2ccc3c(c2)OCCO3)CCC/C1=C\c1ccc2c(c1)OCCO2 .
Solution: 80

###

system: NCI-H23 lung; experiment: NCI tumour cell line growth inhibition, 48 h
Give measured TGI for each item. Keep answers brief.

As a guide, the following entries are already answered.
1. CCOC(=O)C1C=C2O[C@@H]3OC4(CCCCC4)O[C@@H]3C2C2C(=O)CCC(=O)[C@@]12C(=O)OC (stereo partly specified): > 100 µM
2. CCc1c2cc(OC)c(OC)cc2cc2c3cc(OC)c(OC)cc3cc[n+]12 (tested in a mixture with another compound): 60.5 µM
3. CNC(=O)N(CCC#N)CCN(C(=O)N(C)C)c1ccccc1: > 100 µM
4. N#Cc1c(C#N)c(-c2ccccc2)n(Cc2ccccc2)c1N: > 100 µM

List reported TGI for each of these compounds:
1. NC1C=NNC1=O (stereo unspecified)
2. Nc1c(OCC(=O)O)ccc2cc(S(=O)(=O)O)ccc12

Solution:
["> 100 µM", "> 100 µM"]

###

system: MALME-3M melanoma; experiment: NCI tumour cell line growth inhibition, 48 h
measure: TGI (µM)
Answers are plain numbers, in µM.

1) CC(C)(C)c1cc(C(=O)Nc2ccc(C(=O)NCCN)cc2)cc(C(C)(C)C)c1: 3.13
2) c1ccc2cc3c(cc2c1)Nc1c2ccccc2nc2cccc-3c12: 3.07

List reported TGI for each of these compounds:
1. CN(C)C(=O)OCc1nc2c(N3CCOCC3)nc(-c3ccccc3)nc2n1C
2. CCOC(=O)C(C)Sc1nnc(COc2ccc(Cl)cc2)n1-c1ccccc1 (stereo not given)
3. CNC(=O)c1cc(Oc2cccc3nc(NC(=O)Nc4cc(C(F)(F)F)cc(C(F)(F)F)c4)ccc23)ccn1
4. O=S(=O)(NCCNc1nccc(-c2c(-c3ccc(F)c(O)c3)nc3sccn23)n1)c1ccc(Cl)cc1

Solution:
2.96
63.6
12.9
22.7

Problem: I would be grateful if you could share the reported TGI for Cc1ccc(S(=O)(=O)OCC#CCOS(=O)(=O)c2ccc(C)cc2)cc1 .
Solution: 4.1
